The measured values listed here are drawn from the supplement of paper PMC10567573.

B1: BEX1 (parent)
chain: EENMERIGEEVRQLMEKLREKQLS

Variants of: B1
Experiment: protein stability index of a GFP-peptide fusion (GPS, HEK-293T) (PSI 1-6); higher = more stable;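 also: lentivirally expressed fusions sorted by FACS into six bins by GFP to DsRed ratio, PSI derived from sequencing read proportions per bin multiplied by bin number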
Settings: c terminus: a fixed tail appended
Can you tell me protein stability index for the items I'm about to list?
One number for each entry.

- sequenceChange: "E16W"
  quantityMeasured: "protein stability index"
  measuredResult: 2.85
- sequenceChange: "R6P"
  quantityMeasured: "protein stability index"
  measuredResult: 5.03
- sequenceChange: "I7T"
  quantityMeasured: "protein stability index"
  measuredResult: 5.18
- sequenceChange: "R19A"
  quantityMeasured: "protein stability index"
  measuredResult: 4.72
- sequenceChange: "R12M"
  quantityMeasured: "protein stability index"
  measuredResult: 4.62

Would you be so kind as to report protein stability index for each listed record?
1. L18I
2. G8A
3. E5A
4. S24F
5. E20H
6. L23V

1: 4.48; 2: 3.25; 3: 4.28; 4: 4.32; 5: 3.74; 6: 3.88
